tested on: NCI-N87; assay: Cell growth inhibition assay (CellTiter-Glo), stomach cancer cell line NCI-N87; type: cell-based; details: Homo sapiens; NCI-N87 cells, 96 hours
Define the label as Y when IC50 is strictly less than 0.01 µM and as N in all remaining cases.

Past entries and their recorded results:
Q: Is IC50 of Cc1cccc(Oc2cc(NC(=O)c3cc4cc5c(cc4s3)OCCC5S(C)(=O)=O)cc(Cl)n2)c1F (stereo not drawn) strictly below 0.01 µM?
Result: N

Q: Is IC50 of Cc1cc(Oc2cc(NC(=O)c3cc4cc5c(cc4s3)OCCC5S(C)(=O)=O)cc(Cl)n2)ccc1Cl (stereo not drawn) strictly below 0.01 µM?
Result: Y

Q: Is IC50 of "CC1(C)CN(S(C)(=O)=O)c2cc3cc(C(=O)Nc4cc(Cl)nc(Oc5ccc(Cl)cc5)c4)sc3cc2O1" strictly below 0.01 µM?
Result: N

New cases:
Q: Is IC50 of CS(=O)(=O)C1CCCc2cc3sc(C(=O)Nc4cc(Cl)nc(Oc5ccc(Cl)cc5)c4)cc3cc21 (stereo not drawn) strictly below 0.01 µM?
Result: Y

Q: Is IC50 of "CS(=O)(=O)N1CCCOc2cc3sc(C(=O)Nc4cc(Cl)nc(Oc5ccc(Cl)cc5)c4)cc3cc21" strictly below 0.01 µM?
Result: N

Q: Is IC50 of COc1ccc(Oc2cc(NC(=O)c3cc4cc5c(cc4s3)OCCC5S(C)(=O)=O)cc(Cl)n2)cc1 (stereo not drawn) strictly below 0.01 µM?
Result: N

Q: Is IC50 of "CS(=O)(=O)[C@@H]1CCOc2cc3sc(C(=O)Nc4cc(Cl)nc(Oc5ccc(Cl)cc5)c4)cc3cc21" strictly below 0.01 µM?
Result: N

Q: Is IC50 of CS(=O)(=O)C1CCOc2cc3sc(C(=O)Nc4cc(Cl)nc(Oc5ccc(F)c(Cl)c5)c4)cc3cc21 (stereo not drawn) strictly below 0.01 µM?
Result: Y

Q: Is IC50 of N#CC1CCOc2cc3sc(C(=O)Nc4cc(Cl)nc(Oc5ccc(Cl)cc5)c4)cc3cc21 (stereo not drawn) strictly below 0.01 µM?
Result: N

Q: Is IC50 of O=C(Nc1cc(Cl)nc(Oc2ccc(Cl)cc2)c1)c1cc2cc3c(cc2s1)OCCC3n1cccn1 (stereo not drawn) strictly below 0.01 µM?
Result: N

Q: Is IC50 of CS(=O)(=O)C1CCOc2cc3sc(C(=O)Nc4cc(Cl)nc(Oc5ccc(C(F)(F)F)cc5)c4)cc3cc21 (stereo not drawn) strictly below 0.01 µM?
Result: N

Q: Is IC50 of CS(=O)(=O)C1CCOc2cc3sc(C(=O)Nc4cc(Cl)nc(Oc5cc(Cl)cc(Cl)c5)c4)cc3cc21 (stereo not drawn) strictly below 0.01 µM?
Result: N

Q: Is IC50 of CS(=O)(=O)C1CCOc2cc3sc(C(=O)Nc4cc(Cl)nc(Oc5cc(F)cc(Cl)c5)c4)cc3cc21 (stereo not drawn) strictly below 0.01 µM?
Result: Y

====

Listed here are molecules together with their documented IC50.
test system: NCI-N87; assay: Cell growth inhibition assay (CellTiter-Glo), stomach cancer cell line NCI-N87; format: cell-based; details: Homo sapiens; NCI-N87 cells, 96 hours
# unit: µM | format: bare number

Q: Tell me the measured IC50 of Cc1ccc(Oc2cc(NC(=O)c3cc4cc5c(cc4s3)OCCC5S(C)(=O)=O)cc(Cl)n2)cc1 (stereo not drawn) , please.
Result: 0.035

Q: Tell me the measured IC50 of CS(=O)(=O)C1COCc2cc3sc(C(=O)Nc4cc(Cl)nc(Oc5ccc(Cl)cc5)c4)cc3cc21 (stereo not drawn) , please.
Result: 0.0018

Now examine the next entry.
Q: Tell me the measured IC50 of CS(=O)(=O)C1(F)CCOc2cc3sc(C(=O)Nc4cc(Cl)nc(Oc5ccc(Cl)cc5)c4)cc3cc21 (stereo not drawn) , please.
Result: 0.025

The reported numbers originate from patent US10633394B2.
